- Test system: MS2 coat protein
- assayName: apparent KD of MS2 coat protein, switch ON state; designed switch direction (-1 OFF switch, 1 ON switch): -1; higher = weaker reporter binding
- conditionInfo: FMN input: 0 or 200 uM; Eterna round: R93 (includes R88 designs)
reportedEndpoint: apparent KD of MS2 coat protein (nM)
Respond numerically; units are nM and should not be typed.

Check out these entries, answers already filled in.
# monomerSequence, systemUnderTest, apparent KD of MS2 coat protein, nM
measured = [
    ("AUAGUACAUGAGGAUCACCCAUGUCAGGAUAUUGGAUAUGACAUAAAAAAAAUGUUAACGAGAAGGGACUAUAA [EX1 Malc#16]", "MS2 coat protein", 29.2),
    ("AGUUGGCGAGGAUAUACAUGAGGAUCACCCAUGUGAGAGAAAAAAGUGAAAAAGAAAAGUAGAAGGCGCUGACA [73%, Moding Norbert Elias, 3]", "MS2 coat protein", 47.9),
    ("AACAAACAUGAGGAUCACCCAUGUCAGGAUAUGCAAACAACAAACAACAAACAACAAAGCAGAAGGGAUAGGAA [63%, Olong, 4]", "MS2 coat protein", 27.1),
    ("AAAUAGCAAGGAUAUACAUGAGGAUCACCCAUGUGACCCAGGUAUGGCAUAGAAUAGAGUAGAAGGUGCAAAUA [Mod 4 of Ex 3 Tesla 8 - Jieux - Exclusion 3]", "MS2 coat protein", 132),
    ("AAGAAGCAAGGAUAUACUAAAGAAAUGAAAAGAAAUAAAGAACAUGAGGAUCACCCAUGUAGAAGGUGCAAGAA [Webenre]", "MS2 coat protein", 50.4),
]

Would you kindly look at the next entry?
apparent KD of MS2 coat protein recorded for this sequence, AGCAAGUAAGGAUAUGCGAAGUCAGGACACACACUGACAAAGCAGAAGGUACAUGAGGAUCACCCAUGUAAGCA [Mat - Exaclusion 4 - Eli mod - D62] , is 21.8

---

- System: K4 kissing-loop RNA reporter;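 further: bound reporter read as fluorescence of individual clusters on recovered sequencing chips by microscopy, with normalized cluster intensities fitted with a binding model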
- assayName: apparent KD of K4 kissing-loop reporter; higher = weaker reporter binding
- conditionInfo: Eterna round: R107; input ligand: tryptophan 2.4 mM
reportedEndpoint: apparent KD of K4 kissing-loop reporter
Give the value; after it, write the unit.

# monomerSequence, systemUnderTest, apparent KD of K4 kissing-loop reporter
data = [
    ("AGGUUUUGAUCAGGAUAUGCAUUGACGAUGAGAAUAUAGUGAUGUUAUAUACUACGAAUUAGUAAAGUAGAAGGGAUUGAGGUUU [SSFMNB.aB]", "K4 kissing-loop RNA reporter", "518 nM"),
    ("UGAUACCAGACUGAUACCAGCAAGUGAUGUUUGUUGAUCUAUGCAGUCAAAGACUGCUCUUGCCCUUGGCAGCAGUCUGGUAUCU [TheoBX 28 #SwitchBubble #StaticStem]", "K4 kissing-loop RNA reporter", "777 nM"),
]

# apparent KD of K4 kissing-loop reporter of UGACUUGCCUGAGGAUAUCUAGGAUAUCCAUAAAAGGAAAUAAUAGUUCAGUGAUGUUGGAGAAGGAGAGAAGGCAGGUAAGUCU [KL-XFMN-B18 #DoubleAptamer #SwitchBubble] = 448 nM

The value of apparent KD of K4 kissing-loop reporter measured for the sequence AGUGUUAGGUUAGAUACCAGCCGUUCGUGAAUAGUCUUCGAACCGCCAGUGAUGUUGGCAGGCCCUUGGCAGCUAACAGAACAGA [Lagelare] turned out to be 208 nM

GCCGUACGCAUGGAUACCAGCAUUUAUGACACACUGCUAGUGAUGUUAGCUAUGCGUAUAUGCCCUUGGCAGCCAUGCGUACGGC yielded apparent KD of K4 kissing-loop reporter of 133 nM

Record GGAGGUUGGUGCGAUACCAGACCUGCAGUGAUGUUGCGCCAAAGUGAGUGAUGUUCACCGGUCCCUUGGCAGCGCGUCCCUUUAG [Same State Theophylline B GF 15] . Reported apparent KD of K4 kissing-loop reporter: 860 nM

Attribution: the supplement of paper PMC9170038
